The following molecules are shown together with reported pIC50 values.
- test-system: HIF-2α HIS TAG-PASB Domain (Homo sapiens)
- Construct: 100 nM HIF-2α HIS TAG-PASB Domain
- Sequence (Q99814 240-350 limits assumed): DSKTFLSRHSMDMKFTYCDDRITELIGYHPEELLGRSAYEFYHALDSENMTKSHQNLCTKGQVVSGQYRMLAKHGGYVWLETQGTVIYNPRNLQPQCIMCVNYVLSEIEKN
- assay-comment: HIF-2α Scintillation Proximity Assay (SPA)
- Format: binding
- condition: read-out: Scintillation Proximity Assay IC50
pIC50: −log10 of the molar value.

> print(dat)
                                   molecule   value
1  N#Cc1cncc(Oc2ccc(S(=O)(=O)CF)c3c2[C@@H](F)C(F)(F)[C@H]3O)c1  > 7.30

Now consider the entry below.
Asked: Form field: reported pIC50 of CS(=O)(=O)c1ccc(Oc2cncc(Cl)c2)c2c1[C@H](O)C(F)(F)[C@@H]2F
Given back: > 7.30
